Measured flash point, listed per entry.

- compound: "CCCCOCCOCCOCCO [2-[2-(2-butoxyethoxy)ethoxy]ethanol]"
  flash point [°C]: 143.00
- compound: "O=C(O)CCCCCCCCC(=O)O"
  flash point [°C]: 220.00
- compound: "CCCCCCCCCCCCCCCCCC[Si](Cl)(Cl)Cl"
  flash point [°C]: 89.00
- compound: "S=C([S-])NCCNC(=S)[S-].[Zn+2] [zinc;N-[2-(sulfidocarbothioylamino)ethyl]carbamodithioate]"
  flash point [°C]: 90.00
- compound: "Cl/C=C/CCl [(E)-1,3-dichloroprop-1-ene]"
  flash point [°C]: 35.00
- compound: "O=C(OCc1ccccc1)c1ccccc1 [benzyl benzoate]"
  flash point [°C]: 148.00
- compound: "Cc1ccccn1"
  flash point [°C]: 36.00
- compound: "c1ccc2c(c1)Nc1ccccc1S2 [10H-phenothiazine]"
  flash point [°C]: 202.00
- compound: "C=CCC"
  flash point [°C]: -79.00
- compound: "O=C(O)CS"
  flash point [°C]: 113.00
- compound: "O=C1OC(=O)c2ccccc21"
  flash point [°C]: 152.00
- compound: "Cc1ccc(N(C)C)cc1"
  flash point [°C]: 76.00
- compound: "CCCCC(CC)COC(=O)CCCCCCCCC(=O)OCC(CC)CCCC (configuration not stated) [bis(2-ethylhexyl) decanedioate]"
  flash point [°C]: 210.00
- compound: "Oc1ccc(-c2ccccc2)cc1"
  flash point [°C]: 166.00
- compound: "CC1=CCC2CC1C2(C)C (configuration not stated) [2,6,6-trimethylbicyclo[3.1.1]hept-2-ene]"
  flash point [°C]: 33.00
- compound: "Nc1cccc2ccccc12"
  flash point [°C]: 157.00
- compound: "CCCCCCCCC=O"
  flash point [°C]: 83.00
- compound: "CC1CO1 (configuration not stated)"
  flash point [°C]: -37.00
- compound: "OCCCCCO"
  flash point [°C]: 129.00
- compound: "CCCC(=O)C(C)=O"
  flash point [°C]: 28.00
- compound: "Clc1cccc(Cl)c1Cl"
  flash point [°C]: 112.00
- compound: "CCc1ccc(O)cc1"
  flash point [°C]: 104.00
